Source of measurements: ChEMBL document CHEMBL2218924

The entries below are paired with their reported residual activity.
target.entity: RAC-alpha serine/threonine-protein kinase (Homo sapiens)
experimental.parameters: at 10 µM
Dear colleague, please return just the value in %, with no unit written.

[
  {
    "smiles.entry": "CCOc1cc2ncnc(Nc3cccc(Br)c3)c2cc1OCC",
    "experimental.endpoint": "residual activity",
    "obs.value": 109
  },
  {
    "smiles.entry": "COc1ccc(CNc2nc(N(CCO)CCO)nc3c2ncn3C(C)C)cc1",
    "experimental.endpoint": "residual activity",
    "obs.value": 111
  }
]

Request: // lookup residual activity for CCCCc1c(-c2ccc(OC)cc2)[nH]c2nccnc12
Result: 106

Request: Repeat for the following molecule: CC(C)(C)c1cc(C=C(C#N)C#N)cc(Br)c1O
Result: 102

Request: Repeat for the following molecule: CC(C)(C)n1nc(Cc2cccc3ccccc23)c2c(N)ncnc21
Result: 107

Request: Repeat for the following molecule: O=c1c2ccccc2[nH]c(=S)n1CCN1CCC(=C(c2ccc(F)cc2)c2ccc(F)cc2)CC1
Result: 107

Request: Repeat for the following molecule: O=[N+]([O-])/C=C/c1ccc2c(c1)OCO2
Result: 110

Request: Repeat for the following molecule: Cn1c2ccccc2c2c3c(c4c5ccccc5n(CCC#N)c4c21)CNC3=O
Result: 105

Request: Repeat for the following molecule: CO[C@@H]1[C@H](N(C)C(=O)c2ccccc2)C[C@H]2O[C@]1(C)n1c3ccccc3c3c4c(c5c6ccccc6n2c5c31)C(=O)NC4
Result: 99

Request: Repeat for the following molecule: Nc1ccc2ncnc(NCCc3ccc(Oc4ccccc4)cc3)c2c1
Result: 108

Request: Repeat for the following molecule: O=C1Nc2cc(Br)ccc2/C1=C1/Nc2ccccc2/C1=N\O
Result: 107

Request: Repeat for the following molecule: Nc1nc(Nc2ccc(S(N)(=O)=O)cc2)nn1C(=O)c1c(F)cccc1F
Result: 103

Request: Repeat for the following molecule: COc1ccc(OC)c2c(=S)c3ccccc3[nH]c12
Result: 104

Request: Repeat for the following molecule: Nc1ncnc2c1cnn2-c1ccccc1
Result: 96

Request: Repeat for the following molecule: NC(=O)c1ccc2[nH]c(-c3ccc(Oc4ccc(Cl)cc4)cc3)nc2c1
Result: 112

Request: Repeat for the following molecule: COc1ccc(S(=O)(=O)N(CCO)c2ccccc2CN(C)C/C=C/c2ccc(Cl)cc2)cc1
Result: 112

Request: Repeat for the following molecule: COc1ccc(Cl)cc1NC(=O)Nc1cc(C)nc2ccccc12
Result: 94

Request: Repeat for the following molecule: Cc1ccc(S(=O)(=O)/C=C/C#N)cc1
Result: 112

Request: Repeat for the following molecule: CC(=O)c1ccc(N2CCOCC2)cc1O
Result: 111

Request: Repeat for the following molecule: COc1ccc(C(=O)Nc2sc3c(c2C(N)=O)CCCC3)cc1OC
Result: 109

Request: Repeat for the following molecule: O=Nc1c(-c2c(O)[nH]c3ccccc23)[nH]c2ccccc12
Result: 98

Request: Repeat for the following molecule: Oc1ccc(Nc2nc(-c3ccc(Cl)cc3)cs2)cc1
Result: 94

Request: Repeat for the following molecule: Cn1cnc2cc3c(Nc4cccc(Br)c4)ncnc3cc21
Result: 109

Request: Repeat for the following molecule: Cc1cc(Nc2nc(-c3ccccc3)nc3ccccc23)n[nH]1
Result: 101

###

The entries below are paired with their reported residual activity.
target.entity: Mitogen-activated protein kinase kinase kinase 7 (Homo sapiens) (UniProt O43318)
Sequence (O43318 whole entry): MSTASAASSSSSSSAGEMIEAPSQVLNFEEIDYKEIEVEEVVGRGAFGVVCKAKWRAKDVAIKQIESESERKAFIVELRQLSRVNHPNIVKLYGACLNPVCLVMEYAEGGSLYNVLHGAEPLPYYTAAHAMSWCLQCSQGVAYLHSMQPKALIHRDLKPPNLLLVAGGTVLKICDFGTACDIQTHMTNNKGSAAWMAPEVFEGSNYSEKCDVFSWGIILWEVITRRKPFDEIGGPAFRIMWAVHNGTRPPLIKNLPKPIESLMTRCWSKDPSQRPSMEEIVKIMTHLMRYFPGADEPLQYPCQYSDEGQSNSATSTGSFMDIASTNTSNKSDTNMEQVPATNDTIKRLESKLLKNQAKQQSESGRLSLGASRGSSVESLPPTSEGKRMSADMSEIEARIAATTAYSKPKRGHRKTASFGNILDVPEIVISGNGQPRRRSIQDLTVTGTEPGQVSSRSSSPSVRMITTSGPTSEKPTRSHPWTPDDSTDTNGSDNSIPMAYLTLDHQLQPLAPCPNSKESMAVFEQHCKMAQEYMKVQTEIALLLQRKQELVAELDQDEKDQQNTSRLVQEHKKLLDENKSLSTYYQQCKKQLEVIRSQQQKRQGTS
experimental.parameters: at 10 µM
Dear colleague, please return just the value in %, with no unit written.

[
  {
    "compound": "C[S+]([O-])c1ccc(-c2nc(-c3ccc(F)cc3)c(-c3ccncc3)[nH]2)cc1 (configuration not stated)",
    "experimental.endpoint": "residual activity",
    "obs.value": 101
  }
]

Request: // lookup residual activity for O=C1Nc2ccc3ncsc3c2/C1=C/c1c[nH]cn1
Result: 1

Request: Repeat for the following compound: COc1cc(OC)c(/C=C2\C(=O)Nc3ccccc32)c(OC)c1
Result: 81

Request: Repeat for the following compound: COc1ccc2c(c[n+](C)c3c4cc5c(cc4ccc23)OCO5)c1OC
Result: 94

Request: Repeat for the following compound: CC(C)(C)c1cc(C=C(C#N)C#N)cc(Br)c1O
Result: 103

Request: Repeat for the following compound: c1cc(-c2cnn3cc(-c4ccc(OCCN5CCCCC5)cc4)cnc23)ccn1
Result: 13

Request: Repeat for the following compound: O=C1NC(=O)c2c1c1c3ccccc3n3c1c1c2c2ccccc2n1C1CCC3O1
Result: 89

###

target.entity: Death-associated protein kinase 1 (Homo sapiens) (UniProt P53355)
Sequence (P53355 whole entry, looked up): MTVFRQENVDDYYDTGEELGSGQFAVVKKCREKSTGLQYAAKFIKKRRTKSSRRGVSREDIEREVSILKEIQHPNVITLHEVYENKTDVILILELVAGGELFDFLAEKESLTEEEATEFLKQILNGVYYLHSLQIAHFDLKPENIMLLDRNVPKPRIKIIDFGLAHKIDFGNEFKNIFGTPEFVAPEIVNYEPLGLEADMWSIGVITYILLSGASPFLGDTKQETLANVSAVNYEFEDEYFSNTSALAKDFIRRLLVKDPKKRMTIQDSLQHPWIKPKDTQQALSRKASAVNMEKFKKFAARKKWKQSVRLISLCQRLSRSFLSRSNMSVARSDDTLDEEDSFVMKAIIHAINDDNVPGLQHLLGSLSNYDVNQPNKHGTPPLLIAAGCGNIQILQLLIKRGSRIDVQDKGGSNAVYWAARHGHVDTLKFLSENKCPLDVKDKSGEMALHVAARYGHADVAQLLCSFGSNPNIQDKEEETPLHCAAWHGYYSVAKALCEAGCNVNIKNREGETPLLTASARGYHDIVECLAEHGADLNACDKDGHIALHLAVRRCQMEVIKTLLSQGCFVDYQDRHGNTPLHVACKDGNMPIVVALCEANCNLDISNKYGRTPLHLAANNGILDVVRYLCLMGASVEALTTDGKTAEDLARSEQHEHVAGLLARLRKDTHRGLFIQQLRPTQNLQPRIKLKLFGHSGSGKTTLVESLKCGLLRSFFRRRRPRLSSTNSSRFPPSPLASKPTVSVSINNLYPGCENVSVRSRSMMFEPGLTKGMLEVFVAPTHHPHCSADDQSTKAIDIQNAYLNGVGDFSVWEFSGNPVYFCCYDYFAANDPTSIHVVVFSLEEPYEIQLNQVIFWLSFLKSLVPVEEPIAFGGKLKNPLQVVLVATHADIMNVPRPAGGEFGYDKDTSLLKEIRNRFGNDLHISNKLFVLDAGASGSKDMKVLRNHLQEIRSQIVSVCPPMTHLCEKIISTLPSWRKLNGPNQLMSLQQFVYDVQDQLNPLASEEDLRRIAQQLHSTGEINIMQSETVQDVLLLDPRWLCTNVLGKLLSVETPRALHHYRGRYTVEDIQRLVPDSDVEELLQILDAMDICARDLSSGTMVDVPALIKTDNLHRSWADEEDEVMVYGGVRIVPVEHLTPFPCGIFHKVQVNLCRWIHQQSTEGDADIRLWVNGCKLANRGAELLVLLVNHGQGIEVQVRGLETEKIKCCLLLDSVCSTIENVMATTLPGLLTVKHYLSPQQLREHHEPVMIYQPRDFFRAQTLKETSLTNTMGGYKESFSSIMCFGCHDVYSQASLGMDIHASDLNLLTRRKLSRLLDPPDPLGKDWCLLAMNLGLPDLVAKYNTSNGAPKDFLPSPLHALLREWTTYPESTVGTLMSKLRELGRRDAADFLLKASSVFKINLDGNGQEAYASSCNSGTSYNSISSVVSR
experimental.parameters: at 1 µM
residual activity of 90% or higher: Y. Under 90%: N.

Observe how each entry below is paired with its result.
[
  {
    "compound": "CCC(=O)Nc1ccc2ncnc(Nc3cccc(Br)c3)c2c1",
    "target.entity": "Death-associated protein kinase 1 (Homo sapiens) (UniProt P53355)",
    "qualitative.label": "N"
  },
  {
    "compound": "Nc1nc(Nc2ccc(S(N)(=O)=O)cc2)nn1C(=O)c1c(F)cccc1F",
    "target.entity": "Death-associated protein kinase 1 (Homo sapiens) (UniProt P53355)",
    "qualitative.label": "Y"
  },
  {
    "compound": "C[S+]([O-])c1ccc(-c2nc(-c3ccc(F)cc3)c(-c3ccncc3)[nH]2)cc1 (configuration not stated)",
    "target.entity": "Death-associated protein kinase 1 (Homo sapiens) (UniProt P53355)",
    "qualitative.label": "N"
  },
  {
    "compound": "COc1ccc(OC)c2c(=S)c3ccccc3[nH]c12",
    "target.entity": "Death-associated protein kinase 1 (Homo sapiens) (UniProt P53355)",
    "qualitative.label": "Y"
  },
  {
    "compound": "O=c1[nH]c2ccccc2n1C1CCN(Cc2ccc(-c3nc4cc5[nH]cnc5cc4nc3-c3ccccc3)cc2)CC1",
    "target.entity": "Death-associated protein kinase 1 (Homo sapiens) (UniProt P53355)",
    "qualitative.label": "Y"
  },
  {
    "compound": "Fc1ccc(-c2nc3n(c2-c2ccncc2)CCS3)cc1",
    "target.entity": "Death-associated protein kinase 1 (Homo sapiens) (UniProt P53355)",
    "qualitative.label": "N"
  }
]

Request: Decide: is the reported value of residual activity for COc1cc2nccc(Oc3ccc(NC(=O)Nc4cc(C)on4)c(Cl)c3)c2cc1OC equal to or greater than 90%?
Result: Y

Request: Repeat for the following compound: O=C(CCCc1ccc(-c2ccccc2F)cc1)Nc1ccc(O)cc1
Result: Y

Request: Repeat for the following compound: O=c1c2ccccc2[nH]c(=S)n1CCN1CCC(=C(c2ccc(F)cc2)c2ccc(F)cc2)CC1
Result: Y

###

target.entity: Protein kinase C iota type (Homo sapiens) (UniProt P41743)
Sequence (P41743 whole entry): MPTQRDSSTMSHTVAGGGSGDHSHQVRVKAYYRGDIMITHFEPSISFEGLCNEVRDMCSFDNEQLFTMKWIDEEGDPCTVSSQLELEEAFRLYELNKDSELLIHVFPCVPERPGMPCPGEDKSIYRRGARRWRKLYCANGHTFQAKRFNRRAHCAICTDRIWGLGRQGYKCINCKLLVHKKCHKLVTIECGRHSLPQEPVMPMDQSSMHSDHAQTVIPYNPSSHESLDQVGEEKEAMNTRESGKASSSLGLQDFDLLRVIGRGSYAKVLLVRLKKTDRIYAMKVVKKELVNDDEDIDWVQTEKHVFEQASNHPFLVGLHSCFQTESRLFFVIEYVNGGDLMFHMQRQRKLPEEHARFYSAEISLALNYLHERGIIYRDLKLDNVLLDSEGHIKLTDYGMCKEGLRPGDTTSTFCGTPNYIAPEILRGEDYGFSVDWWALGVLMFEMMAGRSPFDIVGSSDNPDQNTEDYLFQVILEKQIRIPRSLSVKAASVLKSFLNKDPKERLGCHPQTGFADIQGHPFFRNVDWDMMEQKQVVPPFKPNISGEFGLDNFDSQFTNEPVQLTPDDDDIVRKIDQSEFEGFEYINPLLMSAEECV
experimental.parameters: at 10 µM
experimental.endpoint: residual activity (%)
Dear colleague, please return just the value in %, with no unit written.

Request: Test system Protein kinase C iota type (Homo sapiens) (UniProt P41743); read-out residual activity; what value for COc1ccc2c(c[n+](C)c3c4cc5c(cc4ccc23)OCO5)c1OC ?
Result: 81

Request: Repeat for the following molecule: C[S+]([O-])c1ccc(-c2nc(-c3ccc(F)cc3)c(-c3ccncc3)[nH]2)cc1 (stereo not drawn)
Result: 101

Request: Repeat for the following molecule: COc1cc2ncnc(Nc3ccc(OCc4ccccc4)cc3)c2cc1OC
Result: 68

###

The entries below are paired with their reported residual activity.
target.entity: Mitogen-activated protein kinase 12 (Homo sapiens)
experimental.parameters: at 10 µM
Dear colleague, please return just the value in %, with no unit written.

[
  {
    "smiles.entry": "Oc1ccc(Nc2nc(-c3ccc(Cl)cc3)cs2)cc1",
    "obs.value": 100
  },
  {
    "smiles.entry": "O=C1NC(=O)C(c2c[nH]c3ccccc23)=C1c1c[nH]c2ccccc12",
    "obs.value": 51
  },
  {
    "smiles.entry": "N#C/C(=C1/Nc2ccccc2S1)c1ccnc(NCCc2cccnc2)n1",
    "obs.value": 72
  }
]

Request: Test system Mitogen-activated protein kinase 12 (Homo sapiens); read-out residual activity; what value for Cn1sc(=O)n(Cc2ccccc2)c1=O ?
Result: 97

Request: Repeat for the following compound: NC(=O)Nc1sc(-c2ccc(F)cc2)cc1C(N)=O
Result: 82

Request: Repeat for the following compound: CC#CC(=O)Nc1cc2c(Nc3ccc(F)c(Cl)c3)ncnc2cn1
Result: 95

Request: Repeat for the following compound: CNc1cc2c(Nc3cccc(Br)c3)ncnc2cn1
Result: 95

Request: Repeat for the following compound: Nc1ccc2ncnc(NCCc3ccc(Oc4ccccc4)cc3)c2c1
Result: 108

Request: Repeat for the following compound: CC(C)c1nn(-c2c(Cl)cccc2Cl)c2nc(Cc3ccc(OCCO)cc3)[nH]c(=O)c12
Result: 101

Request: Repeat for the following compound: Nc1nc(Nc2ccc(S(N)(=O)=O)cc2)nn1C(=S)Nc1c(F)cccc1F
Result: 69

Request: Repeat for the following compound: CO[C@@H]1[C@H](N(C)C(=O)c2ccccc2)C[C@H]2O[C@]1(C)n1c3ccccc3c3c4c(c5c6ccccc6n2c5c31)C(=O)NC4
Result: 87

Request: Repeat for the following compound: CC(=O)O/N=C1\C(=C2\C(=O)Nc3cc(Br)ccc32)Nc2ccccc21
Result: 92

Request: Repeat for the following compound: O=c1cc(N2CCNCC2)oc2c(-c3ccccc3)cccc12
Result: 105

Request: Repeat for the following compound: Cc1nc(-c2ccccc2)c(-c2ccncc2)o1
Result: 103
